Catalogue of compounds with associated GI50
System: MDA-MB-435
Experiment: NCI tumour cell line growth inhibition, 48 h
The source made the active and inactive calls. No stated cut-off is given here; in the data, active = GI50 up to about 1.1 µM and inactive = higher.

compound: C=CCCON(C(=O)OC(C)(C)C)c1ccccc1
target: MDA-MB-435
GI50: > 100 µM (inactive)
--
compound: Cc1ccc(CCCC(=O)O)cc1C
target: MDA-MB-435
GI50: > 100 µM (inactive)
--
compound: FC(F)(Sc1nc2ccccc2[nH]1)c1nc2ccccc2o1
target: MDA-MB-435
GI50: > 100 µM (inactive)

*Q* // fetch MDA-MB-435 GI50 for O=C1CCC(N2C(=O)c3ccccc3C2=O)C(=O)N1 (stereo unspecified) [THALIDOMIDE]
*A* > 100 µM (inactive)

*Q* Now consider COc1cccc(/C(CC(O)(C(F)(F)F)C(F)(F)F)=N\N(C)C)c1 .
*A* > 100 µM (inactive)

*Q* Next compound: CC(C)(C)OC(=O)N/C=C1\C(=O)Oc2ccccc2C1=O
*A* 39.2 µM (inactive)

*Q* Also, C[C@]12CCC(N3CCCC3)CC1=CC[C@@H]1[C@@H]2CC[C@]2(C)C(O)[C@H](n3ccnc3)C[C@@H]12 (stereo partly specified) please.
*A* 36.6 µM (inactive)

*Q* Query CC(C)C1=C(O)C(=O)C2=C(C1=O)C(OC=O)C(O)C1C(C)(C)CCCC21C (stereo unspecified) next
*A* 2.73 µM (inactive)

###

System: COLO 205
Assay: NCI tumour cell line growth inhibition, 48 h
Activity calls are given as the source filed them. Cut-off read from the data, not from the text of the source: active = GI50 up to about 1.1 µM and inactive = higher.
valueType: GI50

Please review the following examples before continuing.
compound: COc1nc2c(c(=O)[nH]1)N=C(c1ccccc1)CC(c1ccccc1)N2 (stereo unspecified)
result: > 100 µM (inactive)
//
compound: N=c1n(C(=O)N2CCCC2)c2cc(Cl)ccc2n1C1=NCCN1
result: > 100 µM (inactive)
//
compound: CSc1cc(Cl)c(C)cc1S(=O)(=O)NC(=O)NNc1ccccn1
result: > 100 µM (inactive)
//
compound: COC(=O)C1CC2CCC1(O[Si](C(C)C)(C(C)C)C(C)C)C(O)C2 (stereo unspecified)
result: 29.4 µM (inactive)
//
compound: CC1(C)C2CCC(O)(C2)C1N (stereo unspecified)
result: > 100 µM (inactive)

Consider the additional compound presented here.
*Q* // map O=C(SCc1cccc2ccccc12)c1ccc(Cl)cc1 to recorded GI50 (system: COLO 205)
*A* 82.2 µM (inactive)

###

Tested on: COLO 205
Assay: NCI tumour cell line growth inhibition, 48 h
Active and inactive are the calls of the source. Cut-off read from the data, not from the text of the source: active = GI50 up to about 1.1 µM and inactive = higher.
valueType: GI50

Some compounds with recorded GI50:
compound: O=C1C2=Cc3ccccc3OC2(O)Oc2cc3ccccc3cc21 (centres undefined)
target: COLO 205
GI50: > 100 µM (inactive)

compound: Cc1cc2nc(-c3c(F)cccc3F)n(Cc3c(F)cccc3F)c2cc1C
target: COLO 205
GI50: 15.2 µM (inactive)

compound: CN1CC2=C(N=C(S)NC2c2ccccc2Cl)/C(=C/c2ccccc2Cl)C1 (centres undefined)
target: COLO 205
GI50: 21.8 µM (inactive)

compound: COC(=O)C1=C(O)CCCC(CCC(C)=O)=C1
target: COLO 205
GI50: 20.5 µM (inactive)

*Q* Reported GI50, compound CC1(C)C2CCC1C(=O)[C@@]1(C=CC(=O)CC1)C2 (some centres undefined) : ____
*A* > 100 µM (inactive)

*Q* What do you get for COc1cc2cnc3c4cc(OC(C)C)c(OC)cc4ccc3c2cc1OC ?
*A* > 100 µM (inactive)

*Q* Next up: O=C1C(=Cc2ccccc2[N+](=O)[O-])N=C(c2ccccc2)N1n1c(-c2ccccc2)nc2ccccc2c1=O
*A* 31.3 µM (inactive)

*Q* And for O=C(O/N=c1/ccc(=O)/c(=N\OC(=O)c2ccccc2)c1=O)c1ccccc1 ?
*A* > 100 µM (inactive)

*Q* Same question for CC1(C)CC[C@]2(C(=O)O)CC[C@]3(C)C(=CC[C@@H]4[C@@]5(C)CC[C@H](OC6OC(C(=O)O)C(O)C(O)C6O)C(C)(C)[C@@H]5CC[C@]43C)[C@@H]2C1 (some centres undefined) please.
*A* 16.9 µM (inactive)
